Values were extracted from patent US9353100B2.

# System: HCV genotype 1a H77 strain subgenomic luciferase replicon (H1a-luc) in Huh-7 cells
# assay_info: HCV luciferase replicon assay, genotype 1a (H1a-luc)
# Type: cell-based
# recorded_conditions: Hepatitis C virus; genotype 1a H77 replicon, Huh-7 (H1a-luc), 72 hours; read-out: EC50 Against Relpicon 1a
pEC50: −log10 of the molar value.
measure_name: pEC50

* COc1ccc2c(O[C@H]3CC[C@H]4C(=O)N(C)CCCC/C=C\[C@@H]5C[C@@]5(C(=O)NS(=O)(=O)C5(C)CC5)NC(=O)[C@@H]4C3)cc(-c3nc(C(C)C)cs3)nc2c1C | 7.00 to 8.00
* CN1CCCC/C=C\[C@@H]2C[C@@]2(C(=O)NS(=O)(=O)C2(C)CC2)NC(=O)[C@@H]2C[C@@H](Oc3nc(-c4cccc(C(F)(F)F)c4)sc3-c3ccccc3)CC[C@H]2C1=O | 5.00 to 6.00
* COc1ccc2c(O[C@H]3CC[C@H]4C(=O)N(C)CCCC/C=C\[C@@H]5C[C@@]5(C(=O)NS(=O)(=O)C5(C)CC5)NC(=O)[C@@H]4C3)cc(-c3nc(C(F)(F)F)cs3)nc2c1C [Compound 17b, reference compound] | > 8.00
* CC(C)c1csc(-c2cc(O[C@H]3CC[C@H]4C(=O)N(C)CCCC/C=C\[C@@H]5C[C@@]5(C(=O)NS(=O)(=O)C5(C)CC5)NC(=O)[C@@H]4C3)nc(-c3nc(C(F)(F)F)cs3)n2)n1 | > 8.00
* Cc1csc(-c2cc(O[C@H]3CC[C@H]4C(=O)N(C)CCCC/C=C\[C@@H]5C[C@@]5(C(=O)NS(=O)(=O)C5(C)CC5)NC(=O)[C@@H]4C3)cc(-c3nc(C(F)(F)F)cs3)n2)n1 | > 8.00

###

Here's a batch of molecules along with measured IC50 for UniProt:O39927.
Sequence (O39927 1031-1212): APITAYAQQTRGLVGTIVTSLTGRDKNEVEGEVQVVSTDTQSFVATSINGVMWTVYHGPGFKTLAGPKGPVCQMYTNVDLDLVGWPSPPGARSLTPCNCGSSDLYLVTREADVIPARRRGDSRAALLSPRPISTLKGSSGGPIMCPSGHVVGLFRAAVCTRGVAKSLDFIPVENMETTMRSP
Sequence (O39927 1662-1715): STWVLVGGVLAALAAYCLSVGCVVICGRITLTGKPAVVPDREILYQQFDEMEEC
measure_name: IC50

- COc1ccc2c(O[C@H]3CC[C@H]4C(=O)N(C)CCCC/C=C\[C@@H]5C[C@@]5(C(=O)NS(=O)(=O)C5(C)CC5)NC(=O)[C@@H]4C3)cc(-c3nc(C(C)C)cs3)nc2c1C [Compound A101]: < 10 nM
- Cc1csc(-c2cc(O[C@H]3CC[C@H]4C(=O)N(C)CCCC/C=C\[C@@H]5C[C@@]5(C(=O)NS(=O)(=O)C5(C)CC5)NC(=O)[C@@H]4C3)nc(-c3nc(C(F)(F)F)cs3)n2)n1 [Compound C101]: < 10 nM
- C#Cc1csc(-c2cc(O[C@H]3CC[C@H]4C(=O)N(C)CCCC/C=C\[C@@H]5C[C@@]5(C(=O)NS(=O)(=O)C5(C)CC5)NC(=O)[C@@H]4C3)c3ccc(OC)c(C)c3n2)n1 [Compound 17a, reference compound]: < 10 nM
- COc1ccc2c(O[C@H]3CC[C@H]4C(=O)N(C)CCCC/C=C\[C@@H]5C[C@@]5(C(=O)NS(=O)(=O)C5(C)CC5)NC(=O)[C@@H]4C3)cc(-c3nc(C(F)(F)F)cs3)nc2c1C [Compound 17b, reference compound]: < 10 nM

###

# Tested on: HCV genotype 1a H77 strain subgenomic luciferase replicon (H1a-luc) in Huh-7 cells
# assay_info: HCV luciferase replicon assay, genotype 1a (H1a-luc)
# Format: cell-based
# recorded_conditions: Hepatitis C virus; genotype 1a H77 replicon, Huh-7 (H1a-luc), 72 hours; read-out: EC50 Against Relpicon 1a
measure_name: EC50

- CN1CCCC/C=C\[C@@H]2C[C@@]2(C(=O)NS(=O)(=O)C2(C)CC2)NC(=O)[C@@H]2C[C@@H](Oc3cc(-c4nc(C(F)(F)F)cs4)nc(-c4nc(C(F)(F)F)cs4)n3)CC[C@H]2C1=O: < 10 nM
- Cc1csc(-c2cc(O[C@H]3CC[C@H]4C(=O)N(C)CCCC/C=C\[C@@H]5C[C@@]5(C(=O)NS(=O)(=O)C5(C)CC5)NC(=O)[C@@H]4C3)nc(-c3nc(C(F)(F)F)cs3)n2)n1: < 10 nM
- C#Cc1csc(-c2cc(O[C@H]3CC[C@H]4C(=O)N(C)CCCC/C=C\[C@@H]5C[C@@]5(C(=O)NS(=O)(=O)C5(C)CC5)NC(=O)[C@@H]4C3)c3ccc(OC)c(C)c3n2)n1 [Compound 17a, reference compound]: < 10 nM

###

# study_system: HCV NS3-NS4A protease 1b (Hepatitis C virus genotype 1b)
# Construct: HCV NS3-NS4A protease, which was produced according to the method of Taremi et al; made in house
# assay_info: HCV protease assay (FRET peptide), genotype 1b
# Format: biochemical
# recorded_conditions: read-out: IC50 Against HS3/4A 1b; genotype 1b protease; 60 min at 30° C.
measure_name: IC50

• CN1CCCC/C=C\[C@@H]2C[C@@]2(C(=O)NS(=O)(=O)C2(C)CC2)NC(=O)[C@@H]2C[C@@H](Oc3nc(-c4ccc(Cl)cc4)sc3-c3ccccc3)CC[C@H]2C1=O = 10 to 100 nM

###

# Test system: HCV genotype 1b Con1 strain subgenomic luciferase replicon (Zluc) in Huh-7 cells
# assay_info: HCV luciferase replicon assay, genotype 1b (Zluc)
# Format: cell-based
# recorded_conditions: Hepatitis C virus, Huh-7, 72 h, read-out: EC50 Against Relpicon 1b
pEC50: −log10 of the molar value.
measure_name: pEC50

- CN1CCCC/C=C\[C@@H]2C[C@@]2(C(=O)NS(=O)(=O)C2(C)CC2)NC(=O)[C@@H]2C[C@@H](Oc3nc(-c4ccc(Cl)cc4)sc3-c3ccccc3)CC[C@H]2C1=O [Compound D104]: 7.00 to 8.00

###

# study_system: HCV NS3-NS4A protease 1b (Hepatitis C virus genotype 1b)
# Construct: HCV NS3-NS4A protease, which was produced according to the method of Taremi et al; made in house
# assay_info: HCV protease assay (FRET peptide), genotype 1b
# Format: biochemical
pIC50: −log10 of the molar value.
Listed here are molecules together with their documented pIC50.
measure_name: pIC50

- Cc1csc(-c2cc(O[C@H]3CC[C@H]4C(=O)N(C)CCCC/C=C\[C@@H]5C[C@@]5(C(=O)NS(=O)(=O)C5(C)CC5)NC(=O)[C@@H]4C3)cc(-c3nc(C(F)(F)F)cs3)n2)n1: > 8.00
- CN1CCCC/C=C\[C@@H]2C[C@@]2(C(=O)NS(=O)(=O)C2(C)CC2)NC(=O)[C@@H]2C[C@@H](Oc3cc(-c4nc(C(F)(F)F)cs4)nc(-c4nc(C(F)(F)F)cs4)n3)CC[C@H]2C1=O: > 8.00
- C#Cc1csc(-c2cc(O[C@H]3CC[C@H]4C(=O)N(C)CCCC/C=C\[C@@H]5C[C@@]5(C(=O)NS(=O)(=O)C5(C)CC5)NC(=O)[C@@H]4C3)c3ccc(OC)c(C)c3n2)n1 [Compound 17a, reference compound]: > 8.00

###

Listed here are molecules together with their documented FS (1a/1b).
# System: HCV genotype 1a H77 strain subgenomic luciferase replicon (H1a-luc) in Huh-7 cells
# assay_info: HCV luciferase replicon assay, genotype 1a (H1a-luc)
# Assay type: cell-based
# recorded_conditions: EC50 against genotype 1a HCV divided by EC50 against genotype 1b, replicon luciferase assay
measure_name: FS (1a/1b)

* COc1ccc2c(O[C@H]3CC[C@H]4C(=O)N(C)CCCC/C=C\[C@@H]5C[C@@]5(C(=O)NS(=O)(=O)C5(C)CC5)NC(=O)[C@@H]4C3)cc(-c3nc(C(C)C)cs3)nc2c1C | 6
* COc1ccc2c(O[C@H]3CC[C@H]4C(=O)N(C)CCCC/C=C\[C@@H]5C[C@@]5(C(=O)NS(=O)(=O)C5(C)CC5)NC(=O)[C@@H]4C3)cc(-c3nc(C(F)(F)F)cs3)nc2c1C [Compound 17b, reference compound] | 6
* CN1CCCC/C=C\[C@@H]2C[C@@]2(C(=O)NS(=O)(=O)C2(C)CC2)NC(=O)[C@@H]2C[C@@H](Oc3nc(-c4ccc(Cl)cc4)sc3-c3ccccc3)CC[C@H]2C1=O | 188

###

# study_system: HCV NS3-NS4A protease 1b (Hepatitis C virus genotype 1b, UniProt Q9WMX2)
# Construct: HCV NS3-NS4A protease, which was produced according to the method of Taremi et al; made in house
# Sequence (Q9WMX2 1658-1711): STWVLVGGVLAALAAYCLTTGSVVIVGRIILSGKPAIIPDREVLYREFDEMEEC
# Sequence (Q9WMX2 1027-1208): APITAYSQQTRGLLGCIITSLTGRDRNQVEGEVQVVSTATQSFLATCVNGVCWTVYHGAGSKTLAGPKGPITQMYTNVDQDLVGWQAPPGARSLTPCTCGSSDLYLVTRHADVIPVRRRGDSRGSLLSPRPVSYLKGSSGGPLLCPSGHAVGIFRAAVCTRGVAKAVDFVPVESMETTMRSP
# assay_info: HCV protease assay (FRET peptide), genotype 1b
# Type: biochemical
measure_name: IC50

• COc1ccc2c(O[C@H]3CC[C@H]4C(=O)N(C)CCCC/C=C\[C@@H]5C[C@@]5(C(=O)NS(=O)(=O)C5(C)CC5)NC(=O)[C@@H]4C3)cc(-c3nc(C(F)(F)F)cs3)nc2c1C [Compound 17b, reference compound] = < 10 nM
• CN1CCCC/C=C\[C@@H]2C[C@@]2(C(=O)NS(=O)(=O)C2(C)CC2)NC(=O)[C@@H]2C[C@@H](Oc3nc(-c4cccc(C(F)(F)F)c4)sc3-c3ccccc3)CC[C@H]2C1=O = 10 to 100 nM
• COc1ccc2c(O[C@H]3CC[C@H]4C(=O)N(C)CCCC/C=C\[C@@H]5C[C@@]5(C(=O)NS(=O)(=O)C5(C)CC5)NC(=O)[C@@H]4C3)cc(-c3nc(C(C)C)cs3)nc2c1C = < 10 nM
• Cc1csc(-c2cc(O[C@H]3CC[C@H]4C(=O)N(C)CCCC/C=C\[C@@H]5C[C@@]5(C(=O)NS(=O)(=O)C5(C)CC5)NC(=O)[C@@H]4C3)nc(-c3nc(C(F)(F)F)cs3)n2)n1 = < 10 nM
• CC(C)c1csc(-c2cc(O[C@H]3CC[C@H]4C(=O)N(C)CCCC/C=C\[C@@H]5C[C@@]5(C(=O)NS(=O)(=O)C5(C)CC5)NC(=O)[C@@H]4C3)nc(-c3nc(C(F)(F)F)cs3)n2)n1 = < 10 nM
